experiment: Metabolic stability in mouse liver microsomes assessed as disappearance of compound; assay type: ADME, Microsome; conditions: read-out: Activity
MEASURED_ATTRIBUTE: metabolised (%)

Recorded metabolised, per entry:
What does the record list as metabolised for O=C(N1CCC(c2cn[nH]c2)C1)N1CCC2(CC2)c2ccccc21 (stereo not given) ?
79

What does the record list as metabolised for O=C(NC1CC1)c1ccc(N2CCN(C(=O)N3CCC(c4cn[nH]c4)C3)c3ccccc32)cc1 (stereo not given) ?
36

What does the record list as metabolised for O=C(N1CCC(c2cn[nH]c2)C1)N1CCCc2ccccc21 (stereo not given) ?
74

I = COc1ccc(-c2cnc(N3CCN(C(=O)N4CCC(c5cn[nH]c5)C4)c4ccccc43)nc2)cc1 (stereo not given)
II = O=C(N1CCC(c2cn[nH]c2)C1)N1CCNc2ccccc21 (stereo not given)
Could you please tell me which of these two has the higher metabolised: I or II ? Selection: enter the item's label.
II
